system: SK-BR-3; assay: Cytotoxicity against human HER2-dependent SKBR3 cells; assay type: functional, cell-based
pIC50: −log10 of the molar value.
PROPERTY: pIC50

{"columns": ["SMILES STRING", "PROPERTY", "TEST VALUE"],
 "data": [
  ["Nc1ncnc(Nc2ccc(OCc3ccccc3)c(Cl)c2)c1-c1nnc(CCN2CCOCC2)o1", "pIC50", 6.49]
]}

###

molecular target: Vascular endothelial growth factor receptor 2 (Homo sapiens); test: Inhibition of VEGFR2 at 100 uM
Sequence (P35968 whole entry): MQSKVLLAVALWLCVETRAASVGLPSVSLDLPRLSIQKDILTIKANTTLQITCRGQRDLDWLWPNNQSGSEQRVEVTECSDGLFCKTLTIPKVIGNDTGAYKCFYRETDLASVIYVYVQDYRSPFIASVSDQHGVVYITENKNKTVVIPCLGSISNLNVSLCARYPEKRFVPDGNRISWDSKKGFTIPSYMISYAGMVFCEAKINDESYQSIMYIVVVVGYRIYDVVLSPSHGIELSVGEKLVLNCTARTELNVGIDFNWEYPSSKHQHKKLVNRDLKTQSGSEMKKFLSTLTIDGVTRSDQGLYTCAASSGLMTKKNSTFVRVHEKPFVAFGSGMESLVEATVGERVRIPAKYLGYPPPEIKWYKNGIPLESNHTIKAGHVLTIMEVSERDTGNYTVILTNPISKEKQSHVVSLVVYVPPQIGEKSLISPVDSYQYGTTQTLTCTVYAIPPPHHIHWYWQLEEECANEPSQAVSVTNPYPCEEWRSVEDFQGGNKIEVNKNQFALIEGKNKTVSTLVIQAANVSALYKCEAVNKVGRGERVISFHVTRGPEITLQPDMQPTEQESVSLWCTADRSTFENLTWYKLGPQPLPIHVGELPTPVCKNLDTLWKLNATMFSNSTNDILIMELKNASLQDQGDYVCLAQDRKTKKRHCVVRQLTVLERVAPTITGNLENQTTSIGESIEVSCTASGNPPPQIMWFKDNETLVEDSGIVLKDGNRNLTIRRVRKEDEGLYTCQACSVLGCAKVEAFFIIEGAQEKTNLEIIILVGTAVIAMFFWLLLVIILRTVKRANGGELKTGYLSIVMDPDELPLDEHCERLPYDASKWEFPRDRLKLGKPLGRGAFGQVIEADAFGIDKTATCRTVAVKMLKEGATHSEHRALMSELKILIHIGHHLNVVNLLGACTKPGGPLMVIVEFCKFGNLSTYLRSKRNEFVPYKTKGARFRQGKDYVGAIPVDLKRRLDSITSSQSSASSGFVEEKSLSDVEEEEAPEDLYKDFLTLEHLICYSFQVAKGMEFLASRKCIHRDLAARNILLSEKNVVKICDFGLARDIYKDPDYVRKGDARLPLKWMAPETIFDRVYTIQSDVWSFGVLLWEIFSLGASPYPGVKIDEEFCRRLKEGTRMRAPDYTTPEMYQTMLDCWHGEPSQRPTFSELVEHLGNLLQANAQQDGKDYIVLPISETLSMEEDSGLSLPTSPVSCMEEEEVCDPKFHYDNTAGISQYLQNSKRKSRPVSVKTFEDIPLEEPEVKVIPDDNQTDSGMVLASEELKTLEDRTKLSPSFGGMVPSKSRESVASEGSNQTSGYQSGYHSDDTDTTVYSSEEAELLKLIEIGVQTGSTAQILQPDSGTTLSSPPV

{"columns": ["SMILES STRING", "inhibition"],
 "data": [
  ["Nc1ncnc(Nc2ccc(OCc3ccccc3)c(Cl)c2)c1C(=O)OCCN1CCOCC1", "11%"],
  ["N#Cc1c(N)ncnc1Nc1ccc(OCc2ccccc2)c(Cl)c1", "37%"],
  ["Nc1ncnc(Nc2ccc(OCc3ccccc3)c(Cl)c2)c1C=O", "< 10%"],
  ["Nc1ncnc(Nc2ccc(OCc3ccccc3)c(Cl)c2)c1C(=O)O", "30%"]
]}

###

target: Aurora kinase A (Homo sapiens); assay: Inhibition of Aurora A at 100 uM
Everything with inhibition lower than 60% is no; everything else, including exactly 60%, is yes.

{"columns": ["SMILES STRING", "ASSIGNED LABEL"],
 "data": [
  ["COC(=O)c1c(N)ncnc1Nc1ccc(OCc2ccccc2)c(Cl)c1", "no"],
  ["Nc1ncnc(Nc2ccc(OCc3ccccc3)c(Cl)c2)c1C=O", "no"],
  ["Nc1ncnc(Nc2ccc(OCc3ccccc3)c(Cl)c2)c1C(=O)OCCN1CCOCC1", "no"],
  ["Nc1ncnc(Nc2ccc(OCc3ccccc3)c(Cl)c2)c1C(=O)O", "yes"],
  ["N#Cc1c(N)ncnc1Nc1ccc(OCc2ccccc2)c(Cl)c1", "no"]
]}

###

system: NCI-N87; test: Cytotoxicity against human HER2-dependent N87 cells; format: functional, cell-based

{"columns": ["SMILES STRING", "MEASURED ON", "IC50 / nM"],
 "data": [
  ["Nc1ncnc(Nc2ccc(OCc3ccccc3)c(Cl)c2)c1-c1nnc(CCN2CCOCC2)o1", "NCI-N87", 411]
]}

###

Observed IC50 values for UniProtKB P00533 are listed in what follows.
Sequence (P00533 whole entry): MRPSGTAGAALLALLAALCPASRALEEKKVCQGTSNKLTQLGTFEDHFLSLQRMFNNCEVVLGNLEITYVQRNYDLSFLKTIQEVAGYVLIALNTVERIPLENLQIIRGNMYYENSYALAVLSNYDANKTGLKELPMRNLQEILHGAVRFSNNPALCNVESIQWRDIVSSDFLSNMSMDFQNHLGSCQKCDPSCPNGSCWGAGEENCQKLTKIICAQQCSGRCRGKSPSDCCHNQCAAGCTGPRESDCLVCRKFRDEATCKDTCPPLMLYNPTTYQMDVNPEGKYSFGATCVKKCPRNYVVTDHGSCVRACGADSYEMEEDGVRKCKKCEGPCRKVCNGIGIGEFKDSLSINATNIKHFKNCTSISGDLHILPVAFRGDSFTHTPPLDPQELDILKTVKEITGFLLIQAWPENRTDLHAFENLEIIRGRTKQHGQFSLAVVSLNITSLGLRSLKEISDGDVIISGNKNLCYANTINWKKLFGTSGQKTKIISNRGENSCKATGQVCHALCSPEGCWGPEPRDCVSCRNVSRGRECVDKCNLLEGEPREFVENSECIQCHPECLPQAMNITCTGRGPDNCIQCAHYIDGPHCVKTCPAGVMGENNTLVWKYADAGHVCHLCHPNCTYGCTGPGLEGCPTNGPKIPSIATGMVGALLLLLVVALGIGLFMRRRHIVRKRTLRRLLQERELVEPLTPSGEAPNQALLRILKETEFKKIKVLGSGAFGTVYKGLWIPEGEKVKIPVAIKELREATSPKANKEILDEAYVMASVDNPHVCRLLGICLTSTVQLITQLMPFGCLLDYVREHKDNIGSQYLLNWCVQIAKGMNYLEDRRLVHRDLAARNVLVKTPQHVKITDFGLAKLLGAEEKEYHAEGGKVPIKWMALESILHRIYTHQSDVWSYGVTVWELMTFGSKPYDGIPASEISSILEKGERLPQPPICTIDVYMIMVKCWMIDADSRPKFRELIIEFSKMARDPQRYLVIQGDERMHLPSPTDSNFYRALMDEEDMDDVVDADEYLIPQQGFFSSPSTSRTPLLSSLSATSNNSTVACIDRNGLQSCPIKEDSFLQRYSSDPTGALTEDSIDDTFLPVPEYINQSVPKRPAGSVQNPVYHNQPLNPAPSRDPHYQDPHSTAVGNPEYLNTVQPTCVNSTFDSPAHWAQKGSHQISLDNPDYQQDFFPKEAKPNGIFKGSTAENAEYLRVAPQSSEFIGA

{"columns": ["SMILES STRING", "MEASURED ON", "IC50 (nM)"],
 "data": [
  ["Nc1ncnc(Nc2ccc(OCc3ccccc3)c(Cl)c2)c1-c1nnc(CCN2CCOCC2)o1", "UniProtKB P00533", 30],
  ["N#Cc1c(N)ncnc1Nc1ccc(OCc2ccccc2)c(Cl)c1", "UniProtKB P00533", 27],
  ["Nc1ncnc(Nc2ccc(OCc3ccccc3)c(Cl)c2)c1C(=O)Nc1ccccc1", "UniProtKB P00533", 76]
]}

###

# Lookup of reported pIC50 keyed by entry
biological target: Receptor tyrosine-protein kinase erbB-2 (Homo sapiens, UniProt P04626)
Sequence (P04626 whole entry): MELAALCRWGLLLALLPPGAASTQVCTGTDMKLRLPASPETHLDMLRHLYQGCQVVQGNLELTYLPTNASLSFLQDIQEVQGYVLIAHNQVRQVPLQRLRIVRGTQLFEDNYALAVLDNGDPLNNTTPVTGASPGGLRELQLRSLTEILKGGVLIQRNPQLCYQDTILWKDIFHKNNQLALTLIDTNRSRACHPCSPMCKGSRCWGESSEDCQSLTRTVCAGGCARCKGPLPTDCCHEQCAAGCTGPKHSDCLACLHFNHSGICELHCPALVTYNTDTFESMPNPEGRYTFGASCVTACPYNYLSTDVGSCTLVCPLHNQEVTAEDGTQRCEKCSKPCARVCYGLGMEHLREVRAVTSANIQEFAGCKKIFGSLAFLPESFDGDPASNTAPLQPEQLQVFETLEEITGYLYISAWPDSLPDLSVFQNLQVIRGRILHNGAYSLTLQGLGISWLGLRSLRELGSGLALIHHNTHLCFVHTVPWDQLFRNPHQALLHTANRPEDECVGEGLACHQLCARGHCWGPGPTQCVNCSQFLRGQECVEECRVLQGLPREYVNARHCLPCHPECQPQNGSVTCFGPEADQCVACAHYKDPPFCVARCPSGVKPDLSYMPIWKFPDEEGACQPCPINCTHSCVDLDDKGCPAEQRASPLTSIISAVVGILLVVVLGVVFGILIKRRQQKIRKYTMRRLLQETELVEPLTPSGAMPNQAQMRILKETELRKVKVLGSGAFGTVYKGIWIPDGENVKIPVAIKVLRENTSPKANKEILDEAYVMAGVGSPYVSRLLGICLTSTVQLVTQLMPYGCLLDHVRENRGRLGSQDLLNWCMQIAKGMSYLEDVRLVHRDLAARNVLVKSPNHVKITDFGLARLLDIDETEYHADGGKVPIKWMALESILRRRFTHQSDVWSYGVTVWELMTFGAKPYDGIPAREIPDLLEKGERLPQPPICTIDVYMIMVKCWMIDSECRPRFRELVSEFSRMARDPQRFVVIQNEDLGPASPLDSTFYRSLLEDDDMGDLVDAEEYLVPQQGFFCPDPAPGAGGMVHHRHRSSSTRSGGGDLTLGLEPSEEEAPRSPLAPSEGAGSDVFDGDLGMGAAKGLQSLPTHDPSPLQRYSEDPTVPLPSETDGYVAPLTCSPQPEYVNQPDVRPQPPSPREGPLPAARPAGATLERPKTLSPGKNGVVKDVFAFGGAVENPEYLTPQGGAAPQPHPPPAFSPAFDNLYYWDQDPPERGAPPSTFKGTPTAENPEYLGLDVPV
pIC50: −log10 of the molar value.

{"columns": ["SMILES STRING", "MEASURED ON", "pIC50"],
 "data": [
  ["Nc1ncnc(Nc2ccc(OCc3ccccc3)c(Cl)c2)c1-c1nnc(CCN2CCOCC2)o1", "Receptor tyrosine-protein kinase erbB-2 (Homo sapiens, UniProt P04626)", 7.10],
  ["Nc1ncnc(Nc2ccc(OCc3ccccc3)c(Cl)c2)c1C(=O)OCc1cccc(F)c1", "Receptor tyrosine-protein kinase erbB-2 (Homo sapiens, UniProt P04626)", "< 4.00"],
  ["Nc1ncnc(Nc2ccc(OCc3ccccc3)c(Cl)c2)c1C(=O)Nc1ccccc1", "Receptor tyrosine-protein kinase erbB-2 (Homo sapiens, UniProt P04626)", "< 4.00"],
  ["Nc1ncnc(Nc2ccc(OCc3ccccc3)c(Cl)c2)c1C(=O)OCCN1CCOCC1", "Receptor tyrosine-protein kinase erbB-2 (Homo sapiens, UniProt P04626)", 5.82],
  ["COc1ccc(CCNC(=O)c2c(N)ncnc2Nc2ccc(OCc3ccccc3)c(Cl)c2)cc1", "Receptor tyrosine-protein kinase erbB-2 (Homo sapiens, UniProt P04626)", "< 4.00"],
  ["COc1ccc(NC(=O)c2c(N)ncnc2Nc2ccc(OCc3ccccc3)c(Cl)c2)cc1", "Receptor tyrosine-protein kinase erbB-2 (Homo sapiens, UniProt P04626)", "< 4.00"]
]}
